Target: PI3K δ (Homo sapiens, UniProt O00329)
Construct: purchased Upstate / Millipore Corporation
Sequence (O00329 whole entry): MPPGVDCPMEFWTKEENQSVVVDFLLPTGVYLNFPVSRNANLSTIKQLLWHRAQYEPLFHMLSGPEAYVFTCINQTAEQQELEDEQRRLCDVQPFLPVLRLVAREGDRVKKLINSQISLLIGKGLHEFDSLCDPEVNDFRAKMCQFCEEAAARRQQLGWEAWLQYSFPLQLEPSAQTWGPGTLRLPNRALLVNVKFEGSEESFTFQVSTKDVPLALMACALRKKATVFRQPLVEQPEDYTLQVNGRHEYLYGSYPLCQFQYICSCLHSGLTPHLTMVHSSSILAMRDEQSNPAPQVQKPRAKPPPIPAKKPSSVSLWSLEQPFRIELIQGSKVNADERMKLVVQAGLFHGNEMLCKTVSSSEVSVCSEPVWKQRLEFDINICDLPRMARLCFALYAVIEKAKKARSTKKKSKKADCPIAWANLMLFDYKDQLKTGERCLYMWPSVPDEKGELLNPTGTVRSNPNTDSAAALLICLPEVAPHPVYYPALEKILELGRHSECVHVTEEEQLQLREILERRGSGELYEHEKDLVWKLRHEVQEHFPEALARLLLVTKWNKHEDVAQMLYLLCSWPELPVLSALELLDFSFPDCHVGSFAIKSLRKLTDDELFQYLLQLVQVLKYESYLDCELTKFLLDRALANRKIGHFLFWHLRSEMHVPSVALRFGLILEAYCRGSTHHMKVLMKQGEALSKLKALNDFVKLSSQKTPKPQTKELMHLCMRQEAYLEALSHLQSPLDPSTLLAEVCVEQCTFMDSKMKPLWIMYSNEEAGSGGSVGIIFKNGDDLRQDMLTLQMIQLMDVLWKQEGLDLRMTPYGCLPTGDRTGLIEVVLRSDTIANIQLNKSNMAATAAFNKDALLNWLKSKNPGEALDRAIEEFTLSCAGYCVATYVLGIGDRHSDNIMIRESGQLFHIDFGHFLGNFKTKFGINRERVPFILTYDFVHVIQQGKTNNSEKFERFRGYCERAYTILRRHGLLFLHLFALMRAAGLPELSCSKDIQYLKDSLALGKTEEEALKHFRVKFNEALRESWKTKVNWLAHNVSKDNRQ
Sequence (P27986 whole entry partner): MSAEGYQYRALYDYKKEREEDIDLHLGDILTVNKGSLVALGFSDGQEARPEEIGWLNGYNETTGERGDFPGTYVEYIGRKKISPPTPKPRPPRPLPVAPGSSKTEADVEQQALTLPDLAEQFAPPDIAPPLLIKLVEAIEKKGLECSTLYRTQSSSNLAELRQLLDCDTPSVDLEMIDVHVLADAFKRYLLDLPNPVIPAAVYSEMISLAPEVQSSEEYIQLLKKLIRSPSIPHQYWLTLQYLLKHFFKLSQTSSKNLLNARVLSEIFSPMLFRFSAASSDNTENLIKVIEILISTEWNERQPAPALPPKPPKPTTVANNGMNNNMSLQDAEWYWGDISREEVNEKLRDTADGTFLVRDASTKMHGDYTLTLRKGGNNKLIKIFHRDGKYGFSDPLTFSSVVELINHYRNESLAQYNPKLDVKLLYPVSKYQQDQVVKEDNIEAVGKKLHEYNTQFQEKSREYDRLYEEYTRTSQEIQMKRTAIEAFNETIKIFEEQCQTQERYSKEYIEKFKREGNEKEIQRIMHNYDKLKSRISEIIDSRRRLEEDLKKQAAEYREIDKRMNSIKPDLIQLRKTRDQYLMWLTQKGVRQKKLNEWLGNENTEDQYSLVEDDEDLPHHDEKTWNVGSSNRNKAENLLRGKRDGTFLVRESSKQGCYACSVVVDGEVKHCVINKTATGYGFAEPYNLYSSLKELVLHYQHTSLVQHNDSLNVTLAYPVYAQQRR
Assay: PI 3-Kinase (human) HTRF assay, PI3K δ
Format: biochemical
Conditions: read-out: PI3K δ IC50

molecule	subjectOfTest	IC50
Nc1nc2cc(-c3ccc4ncc(C(=O)NCCCN5CCOCC5)n4c3)ccc2o1 [Compound 288]	PI3K δ (Homo sapiens, UniProt O00329)	< 1 µM
O=C(c1cnc2ccc(-c3ccc4c(Nc5ccccc5)noc4c3)cn12)N1CCOCC1 [Compound 509]	PI3K δ (Homo sapiens, UniProt O00329)	> 10 µM
CC(=O)Nc1nc2ccc(-c3cc(F)c4oc(N)nc4c3)cc2s1 [Compound 434]	PI3K δ (Homo sapiens, UniProt O00329)	< 0.1 µM
Nc1nc2cc(-c3ccc4ncc(C(=O)NC5CCOCC5)n4c3)ccc2o1 [Compound 83]	PI3K δ (Homo sapiens, UniProt O00329)	< 0.1 µM
Nc1nc2cc(-c3ccc4ncc(N5CCNCC5=O)nc4c3)ccc2o1 [Compound 389]	PI3K δ (Homo sapiens, UniProt O00329)	> 10 µM
COc1ncc(-c2ccc3ncn(C4CCN(C(C)C)CC4)c(=O)c3c2)cc1NS(=O)(=O)c1ccccc1 [Compound 522]	PI3K δ (Homo sapiens, UniProt O00329)	< 0.1 µM
Nc1nc2cc(-c3c[nH]c4nccc(-c5ccncc5)c34)ccc2o1 [Compound 25]	PI3K δ (Homo sapiens, UniProt O00329)	> 10 µM
CN1CCN(c2cc(-c3ccnc4ccc(-c5ccc6oc(N)nc6c5)cc34)ccn2)CC1 [Compound 30]	PI3K δ (Homo sapiens, UniProt O00329)	< 0.1 µM
CC(C)N1CCN(C2CN(c3cnc4ccc(-c5ccc6oc(N)nc6c5)cc4n3)C2)CC1 [Compound 331]	PI3K δ (Homo sapiens, UniProt O00329)	< 10 µM
CCN1CCC(n2cnc3ccc(-c4ccc5oc(N)nc5c4)cc3c2=O)CC1 [Compound 73]	PI3K δ (Homo sapiens, UniProt O00329)	> 10 µM
CN1CCN(S(=O)(=O)c2cnc3ccc(-c4ccc5oc(N)nc5c4)cn23)CC1 [Compound 110]	PI3K δ (Homo sapiens, UniProt O00329)	> 10 µM
Nc1nc2cc(-c3ccc4ncc(-c5ccc(N6CCOCC6)nc5)n4c3)ccc2o1 [Compound 51]	PI3K δ (Homo sapiens, UniProt O00329)	< 1 µM
CN1CCN(c2nc3cc(-c4ccc5oc(N)nc5c4)ccc3c(=O)n2C)CC1 [Compound 79]	PI3K δ (Homo sapiens, UniProt O00329)	> 10 µM
NC(=O)[C@H]1CCCN1C(=O)c1cnc2ccc(-c3ccc4oc(N)nc4c3)cn12 [Compound 260]	PI3K δ (Homo sapiens, UniProt O00329)	> 10 µM
Nc1nc2cc(-c3ccc4ncc(N5CC(C(=O)N6CCOCC6)C5)nc4c3)ccc2o1 [Compound 169]	PI3K δ (Homo sapiens, UniProt O00329)	< 1 µM
Nc1nc2cc(-c3nc4cc(-c5cccnc5)cnc4s3)ccc2o1 [Compound 402]	PI3K δ (Homo sapiens, UniProt O00329)	> 10 µM
CN1CCC(Nc2ncnc3ccc(-c4ccc5oc(N)nc5c4)cc23)CC1 [Compound 35]	PI3K δ (Homo sapiens, UniProt O00329)	< 0.1 µM
